// provenance: patent US11667602B2

# assayProcedure: Solubility (Test F)
# Format: physicochemical
# measurementConditions: arithmetic mean if run multiple times
quantityKind: solubility (µM)
Numbers only, in µM.

| compound | readingUnit | solubility |
| --- | --- | --- |
| COc1cc(F)c(O[C@H]2CC[C@@](C)(C(=O)O)CC2)cc1C(=O)N[C@H]1[C@@H]2CC[C@@H](C2)[C@H]1C(=O)NCC1(C)CCC1 [Example 3] | µM | 860 |

Attention now shifts to the item below.
Form field solubility, entry COc1cc(C#N)c(O[C@H]2CC[C@@](C)(C(=O)O)CC2)cc1C(=O)N[C@@H]1[C@H]2CC[C@H](C2)[C@@H]1C(=O)NCC1(O)CCC(F)(F)CC1 [Example 101] : 990
